IC50 values for Tyrosine-protein kinase JAK3 (Homo sapiens) compiled from several publications are listed below.

The cases that follow already have their IC50 on record.
> print(dat)
                                   molecule  measured.metric      observed
1  CN(C)C/C=C/C(=O)Nc1cccc(Nc2cc(Oc3ccc(F)c(Cl)c3)ncn2)c1             IC50  10 to 100 nM
2  CSc1nc2cnc(-n3cnc4ccc(F)cc43)nc2n1[C@@H]1CCOc2c(F)cccc21             IC50      < 100 nM
3  C=CC(=O)N1CC(CNc2nc(Nc3cnn(C)c3)nc3sccc23)C1             IC50  10 to 100 nM
4  CNC(=O)c1n[nH]c2cc(-c3cc(F)c(O)cc3CC(F)(F)F)nc(NCC(C)C)c12             IC50        131 nM
5  C=CC(=O)N1CCC[C@@H](n2nc(-c3ccc(Oc4ccccc4)c(F)c3)c3cncnc32)C1             IC50      > 500 nM

Lab note: `N#CCNC(=O)c1ccc(-c2ccnc(Nc3ccc(C(=O)N4CCC(N5CCCC5)CC4)cc3)n2)cc1` gave IC50 of < 1000 nM

For this molecule ( `CN1CCC(C(=O)N2CCC[C@@H](Nc3n[nH]c4nccc(Oc5ccc(C(=O)Nc6cc(C(F)(F)F)ccn6)cc5)c34)C2)CC1` ), measured IC50 is > 10000 nM

Field IC50 (entry `N#CCC(=O)N1CCC[C@@H](Nc2c(-c3nccs3)cnc3[nH]ccc23)C1` ) reads ≤ 10 nM

`CN1CCN(c2nc(-n3cnc4ccc(C#N)cc43)nc3c2[nH]c(=O)n3C2CCOCC2)CC1` has a reported IC50 of < 100 nM

The measured IC50 associated with `Cc1cn(-c2cc(NC(=O)c3ccc(C)c(-c4ccc5c(c4)[nH]c4ncncc45)c3)cc(C(F)(F)F)c2)cn1` reads ≤ 500 nM

Measured IC50 of COCNC(=O)C1CCCN(N(C)c2ncnc3[nH]ccc23)C1 (centres unmarked) : 10 to 100 nM

Form field IC50, entry `CCC(CC)n1cc(-c2nc(-c3cnn([C@H]4C[C@@H](O)C4)c3)cn3nccc23)cn1` : 1000 to 10000 nM

Given item `CN(c1ncnc2[nH]ccc12)[C@H]1CC[C@H](NC(=O)NCC#N)CC1` , the value recorded as its IC50 is 26 nM

###

Below are IC50 measurements against Tyrosine-protein kinase JAK3 (Homo sapiens, UniProt P52333) drawn from the literature.

See these solved cases before continuing.
> print(dat)
                                   compound  measured.metric     observed
1  Cc1nn(C)cc1Nc1ncc(Cl)c(NC2CCN(c3ccc(C#N)nn3)CC2)n1             IC50     0.263 µM
2  CN(c1ncnc2[nH]ccc12)N1CCCC(C(=O)NCCC#N)C1 (centres unmarked)             IC50  0.1 to 1 µM
3  CCOC(=O)c1ccc(Cn2ccc3cnc(Nc4cnn(C)c4)nc32)s1             IC50   1 to 10 µM
4  N#CC[C@H](C1CCCC1)n1cc2c(n1)C(=O)c1c[nH]c3nccc-2c13             IC50     > 0.1 µM

Now for a further compound.
Entry `CC(=O)Nc1ccc(-c2nc3cnc(-n4cnc5ccc(C#N)cc54)nc3n2C2CCOCC2)cc1` ; IC50 = < 0.1 µM
